meta.source: patent US20260015322A1

For each of the molecules below, state its Prodrug (%).
Protocol Description: Plasma Stability Assay (Example A3), rat plasma
Format: in vitro ADME
Reported Conditions: 10 μM, 37° C., prodrug remaining, 0 min
Excerpt: The data is represented in the table below.
Numbers only, in %.

Some molecules with known Prodrug (%) results, for comparison:
Molecule: COc1ccc([C@@]23CCC(OP4(=O)OC(C)CC(C)O4)=C[C@@H]2N(C)CC3)cc1OC (stereo partly shown)
Unit Spec: %
Recorded Value: 100.00

Molecule: COc1ccc([C@@]23CCC(OP(=O)(OC(C)C)OC(C)C)=C[C@@H]2N(C)CC3)cc1OC
Unit Spec: %
Recorded Value: 100.0

Molecule: COc1ccc([C@@]23CCC(OP(=O)(O)OCOC(=O)OC(C)C)=C[C@@H]2N(C)CC3)cc1OC
Unit Spec: %
Recorded Value: 100.0

Molecule: COc1ccc([C@@]23CCC(OP(=O)(O)OCOC(=O)C(C)C)=C[C@@H]2N(C)CC3)cc1OC
Unit Spec: %
Recorded Value: 100.0

Molecule: COc1ccc([C@@]23CCC(OP(=O)(O)OCOC(=O)C(C)(C)C)=C[C@@H]2N(C)CC3)cc1OC
Unit Spec: %
Recorded Value: 100.0

Dear reader, for each entry below, please note its Prodrug (%).
1. COc1ccc([C@@]23CCC(OP4(=O)OCCCO4)=C[C@@H]2N(C)CC3)cc1OC
2. COc1ccc([C@@]23CCC(OP4(=O)OCC(C)(C)CO4)=C[C@@H]2N(C)CC3)cc1OC

1: 100.0; 2: 100.00

###

Protocol Description: Plasma Stability Assay (Example A2), mouse plasma
Type: in vitro ADME
Reported Conditions: Mouse Plasma, 37° C., prodrug remaining; 120 min
Method: Each test was carried out in duplicate for each time point; 0 min, 15 min, 30 min, 60 min, 120, 240 min. […]
Attribute Measured: Prodrug (%)
Answers are plain numbers, in %.

Some compounds with known Prodrug (%) results, for comparison:
Mol Smiles: COc1ccc([C@@]23CCC(OP4(=O)OCC(C)(C)CO4)=C[C@@H]2N(C)CC3)cc1OC
Prodrug (%): 71.9
--
Mol Smiles: COc1ccc([C@@]23CCC(OP(=O)(Oc4ccccc4)Oc4ccccc4)=C[C@@H]2N(C)CC3)cc1OC
Prodrug (%): 19.4

Please examine the following record next.
Bench note: what Prodrug (%) did COc1ccc([C@@]23CCC(OP(=O)(O)O)=C[C@@H]2N(C)CC3)cc1OC show?
50.7

###

Protocol Description: in vivo
Format: in vivo, male C57BL/6 mice
Reported Conditions: male, C57BL/6, mouse, in vivo; 321; 321 IV 2 mg/kg, mice; 0.25 h; read-out: Plasma concentrations (mean)
Experimental: Total fifteen male mice were used in this study with n=3 mice/time point with sparse sampling study design. Animals were administered through intravenous route with solution formulation of 321 at 2 mg/kg dose. […]
Attribute Measured: concentration at 0.25 h (ng/mL)
Give bare numbers, in ng/mL.

Bench note: what concentration at 0.25 h did COc1ccc([C@@]23CCC(OP(=O)(OC(C)C)OC(C)C)=C[C@@H]2N(C)CC3)cc1OC [Compound 321] show?
105

###

Protocol Description: Plasma Stability Assay (Example A3), human plasma
Assay type: in vitro ADME
Reported Conditions: 10 μM, 37° C., prodrug remaining, 30 min
Attribute Measured: Prodrug (%)

Some compounds with known Prodrug (%) results, for comparison:
Compound: COc1ccc([C@@]23CCC(OP(=O)(O)OCOC(=O)OC(C)C)=C[C@@H]2N(C)CC3)cc1OC
Recorded Value: 98.8%

Compound: COc1ccc([C@@]23CCC(OP(=O)(O)OCOC(=O)C(C)C)=C[C@@H]2N(C)CC3)cc1OC
Recorded Value: 82.6%

Please examine the following record next.
Bench note: what Prodrug (%) did COc1ccc([C@@]23CCC(OP4(=O)OC(C)CC(C)O4)=C[C@@H]2N(C)CC3)cc1OC (stereo partly drawn) show?
>99%
